- assay_system: Delta-type opioid receptor (Rattus norvegicus)
- Sequence (P33533 whole entry): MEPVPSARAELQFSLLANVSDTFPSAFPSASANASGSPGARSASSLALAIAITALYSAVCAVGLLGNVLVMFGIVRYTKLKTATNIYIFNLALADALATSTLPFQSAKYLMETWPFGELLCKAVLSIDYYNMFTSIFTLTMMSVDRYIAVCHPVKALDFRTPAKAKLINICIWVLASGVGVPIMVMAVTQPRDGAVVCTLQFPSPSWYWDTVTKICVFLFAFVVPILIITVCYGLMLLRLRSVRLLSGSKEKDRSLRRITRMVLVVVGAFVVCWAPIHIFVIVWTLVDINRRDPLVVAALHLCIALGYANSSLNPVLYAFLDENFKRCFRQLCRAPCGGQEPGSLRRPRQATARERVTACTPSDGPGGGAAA
- test_description: Ability to inhibit the binding of [3H]DSLET to Opioid receptor delta 1 in rat brain membranes
- Type: cell membranes
measured_quantity: pKi
Answers are plain numbers, as −log10 of the molar value.

Value wanted: pKi (Delta-type opioid receptor (Rattus norvegicus)) of entry `C[C@@H](NC(=O)[C@@H](N)Cc1ccc(O)cc1)C(=O)NCC(=O)N(C)[C@@H](Cc1ccccc1)C(=O)NCCO`
6.15

---

Please respond with reported pIC50 for every item in the list.
- assay_system: UniProt:P97266
- test_description: Inhibition of electrically evoked contraction of guinea pig ileum (myenteric plexus:longitudinal muscle preparation) by agonist action at mu 1 opioid receptors
Square brackets hold non-standard residues; d marks the D form. Peptide text beside a SMILES is read from it. azaGly = NNC(=O)O
One number for each entry, as −log10 of the molar value.

Recorded results for 3 molecules are shown here.
CC(C)C[C@H](NC(=O)[C@H](Cc1ccccc1)NC(=O)CNC(=O)[C@H](NC(=O)[C@@H](N)Cc1ccc(O)cc1)[C@H](C)O)C(=O)N1C[C@H](O)C[C@H]1C(=O)O : 7.06
CC(C)CC(C)NC(=O)CNC(=O)C(C)(C)NC(=O)[C@@H](N)Cc1ccc(O)cc1 (some centres undefined) : 5.73
CC(C)C[C@H](NC(=O)[C@H](Cc1ccccc1)NC(=O)CNC(=O)NNC(=O)[C@@H](N)Cc1ccc(O)cc1)C(=O)N[C@H](C(=O)O)[C@@H](C)O (H-Y[azaGly]GFLT-OH) : 4.85

# batch size: 3; output pIC50 per entry
1. CC(C)C[C@H](NC(=O)[C@H](Cc1ccccc1)NC(=O)CNC(=O)[C@H](NC(=O)[C@@H](N)Cc1ccc(O)cc1)[C@H](C)O)C(=O)N[C@@H](CO)C(=O)O
2. C[C@@H](NC(=O)[C@@H](N)Cc1ccc(O)cc1)C(=O)NCC(=O)N(C)[C@@H](Cc1ccccc1)C(=O)NCCO
3. CCN(C(=O)CNC(=O)[C@@H](C)NC(=O)[C@@H](N)Cc1ccc(O)cc1)C(C)CC(C)C (some centres undefined)

7.00
7.94
6.67

---

- assay_system: Mu-type opioid receptor (Cavia porcellus, UniProt P97266)
- Sequence (P97266 whole entry): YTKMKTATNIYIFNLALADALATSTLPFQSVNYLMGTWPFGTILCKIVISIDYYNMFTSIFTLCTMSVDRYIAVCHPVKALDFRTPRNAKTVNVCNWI
- test_description: Inhibition of electrically evoked contraction of guinea pig ileum (myenteric plexus:longitudinal muscle preparation) by agonist action at mu 1 opioid receptors
Numbered stars: 1 amine (or outer) side, 2 acyl side, 3 side chain; on linkers, the order of the positions; unused ones are H or OH. Square brackets hold non-standard residues; d marks the D form. Peptide text beside a SMILES is read from it. X1 = CC[C@H](O)[C@H](N[*:1])C(=O)[*:2]
Define the label as fulfilled when IC50 is strictly less than 300 nM and as not fulfilled in all remaining cases.

Worked cases, answers included:
CC(C)CC(C)NC(=O)CNC(=O)[C@@H](C)NC(=O)[C@@H](N)Cc1ccc(O)cc1 (stereo partly drawn) : fulfilled
CC(C)C[C@@H](C(=O)NCCO)N(C)C(=O)CNC(=O)[C@@H](C)NC(=O)[C@@H](N)Cc1ccc(O)cc1 : not fulfilled
CC(C)C[C@H](NC(=O)[C@H](Cc1ccccc1)NC(=O)CNC(=O)[C@H](NC(=O)[C@@H](N)Cc1ccc(O)cc1)[C@H](C)O)C(=O)N[C@H](C(=O)O)[C@@H](C)O : not fulfilled
CC(C)CCNC(=O)CNC(=O)[C@@H](C)NC(=O)[C@@H](N)Cc1ccc(O)cc1 : not fulfilled

Given the entry `CC(C)C[C@H](NC(=O)[C@H](CC(C)C)NC(=O)[C@H](Cc1ccccc1)NC(=O)CNC(=O)[C@@H](CO)NC(=O)[C@@H](N)Cc1ccc(O)cc1)C(=O)O` , would its reported IC50 be below 300 nM?
fulfilled

is_below(IC50, 300 nM) for CC(C)CC(C)NC(=O)CNC(=O)[C@@H](COC(C)(C)C)NC(=O)[C@@H](N)Cc1ccc(O)cc1 (stereo partly drawn) ?
fulfilled

Strictly below 300 nM in IC50? `CSCC[C@@H](NC(=O)[C@@H](N)Cc1ccc(O)cc1)C(=O)NCC(=O)NCCC(C)C`
fulfilled

Below 300 nM on IC50? Entry CC[C@H](O)[C@H](NC(=O)[C@@H](N)Cc1ccc(O)cc1)C(=O)NCC(=O)N[C@@H](Cc1ccccc1)C(=O)N[C@@H](CC(C)C)C(=O)N[C@H](C(=O)O)[C@@H](C)O (H-Y[X1]GFLT-OH)
fulfilled
